- Measured On: T1, IL10Rα/IL2Rγ receptor (human, UniProt Q13651 22-578; P31785 23-369)
- T1 sequence (looked up) 1: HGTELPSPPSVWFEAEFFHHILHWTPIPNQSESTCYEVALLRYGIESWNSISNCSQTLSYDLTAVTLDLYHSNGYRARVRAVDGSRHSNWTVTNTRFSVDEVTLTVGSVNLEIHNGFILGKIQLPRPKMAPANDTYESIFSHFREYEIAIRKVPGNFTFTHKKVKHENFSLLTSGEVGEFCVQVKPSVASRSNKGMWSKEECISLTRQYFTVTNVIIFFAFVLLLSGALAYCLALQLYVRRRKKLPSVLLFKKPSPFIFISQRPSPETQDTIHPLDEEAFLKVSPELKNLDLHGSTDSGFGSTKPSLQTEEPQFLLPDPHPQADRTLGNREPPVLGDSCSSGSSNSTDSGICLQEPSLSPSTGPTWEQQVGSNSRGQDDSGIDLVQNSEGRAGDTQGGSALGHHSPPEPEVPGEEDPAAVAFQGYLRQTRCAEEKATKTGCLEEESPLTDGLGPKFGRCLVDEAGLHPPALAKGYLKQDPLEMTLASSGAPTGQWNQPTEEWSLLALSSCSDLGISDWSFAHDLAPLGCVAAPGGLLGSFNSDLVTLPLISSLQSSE
- T1 sequence (looked up) 2: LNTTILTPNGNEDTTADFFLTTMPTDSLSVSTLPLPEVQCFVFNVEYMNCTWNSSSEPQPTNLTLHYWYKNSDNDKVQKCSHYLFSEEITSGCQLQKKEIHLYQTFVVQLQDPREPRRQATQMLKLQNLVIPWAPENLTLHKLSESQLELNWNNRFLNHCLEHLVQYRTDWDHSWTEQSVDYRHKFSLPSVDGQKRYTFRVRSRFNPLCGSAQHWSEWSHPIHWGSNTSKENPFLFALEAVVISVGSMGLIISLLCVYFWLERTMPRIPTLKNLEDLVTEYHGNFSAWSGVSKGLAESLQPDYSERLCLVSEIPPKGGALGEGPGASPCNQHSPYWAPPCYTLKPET
- Assay Comment: cell-based or functional assay
Measurement Name: pSTAT3 MFI, CD4+ T cells, 100 nM (unstimulated 1778) (MFI)
Reply numerically in MFI, unit not repeated.

**Q:** Return pSTAT3 MFI, CD4+ T cells, 100 nM (unstimulated 1778) for the following binder: DR449(DR237-DR233) (bispecific antibody) QVQLQESGGGSVQAGGSLRLSCAASGYTYSMYCMGWFRQAPGKEREGVAQINSDGSTSYADSVKGRFTISKDNAKNTLYLQMNSLKPEDTAMYYCAADSRVYGGSWYERLCGPYTYEYNYWGQGTQVTVSSGGGSQVQLQESGGGSVQAGGSLRLSCTASGFTFDDSDMGWYRQAPGNECELVSTISSDGSTYYADSVKGRFTISQDNAKNTVYLQMNSLKPEDTAVYYCAAEPRGYYSNYGGRRECNYWGQGTQVTVSSASHHHHHH
**A:** 2700
